molecules and their reported Kd
- assay.info: Fluorescence titration of indicator with lanthanide ions in cuvettes
- Assay type: binding
- measurement.parameters: Table 3 binding constant; read-out: Kd La^3+
readout.type: Kd (µM)

molecule	readout.type	obs.value
O=C([O-])CN(CC(=O)O)c1ccc(C2=c3cc4c5c(c3Oc3c2cc2c6c3CCCN6CCC2)CCC[N+]=5CCC4)cc1OCCOCCOc1ccccc1N(CC(=O)O)CC(=O)O [Compound 115]	Kd	0.352
CN(C)c1ccc2c(-c3ccc(N(CC(=O)[O-])CC(=O)O)c(OCCOCCOc4ccccc4N(CC(=O)O)CC(=O)O)c3)c3ccc(=[N+](C)C)cc-3oc2c1 [Compound 112]	Kd	0.359
O=C([O-])CN(CC(=O)[O-])c1ccccc1OCCOCCOc1cc(-c2c3cc(F)c(=O)cc-3oc3cc([O-])c(F)cc23)ccc1N(CC(=O)[O-])CC(=O)[O-].[K+].[K+].[K+].[K+].[K+] [Compound 109]	Kd	0.01

====

- assay.info: Fluorescence titration of indicator with mercury ions in cuvettes
- Type: binding
- measurement.parameters: Table 3 binding constant; read-out: Kd Hg^2+
pKd: −log10 of the molar value.
readout.type: pKd

sample.smiles	readout.type	obs.value
O=C([O-])CN(CC(=O)[O-])c1ccccc1OCCOCCOc1cc(-c2c3cc(F)c(=O)cc-3oc3cc([O-])c(F)cc23)ccc1N(CC(=O)[O-])CC(=O)[O-].[K+].[K+].[K+].[K+].[K+]	pKd	5.67

====

compounds and their reported Kd
- assay.info: Fluorescence titration of indicator with manganese ions
- Type: binding
- measurement.parameters: Table 3 binding constant; read-out: Kd Mn^2+
readout.type: Kd (µM)

> print(dat)
                              sample.smiles  readout.type  unit.name  obs.value
1  CN(C)c1ccc2c(-c3ccc(N(CC(=O)[O-])CC(=O)O)c(OCCOCCOc4ccccc4N(CC(=O)O)CC(=O)O)c3)c3ccc(=[N+](C)C)cc-3oc2c1            Kd         µM       80.2
2  O=C([O-])CN(CC(=O)O)c1ccc(C2=c3cc4c5c(c3Oc3c2cc2c6c3CCCN6CCC2)CCC[N+]=5CCC4)cc1OCCOCCOc1ccccc1N(CC(=O)O)CC(=O)O            Kd         µM        136

====

- assay.info: Fluorescence titration of indicator with lead ions
- Format: binding
- measurement.parameters: Table 3 binding constant; read-out: Kd Pb^2+
readout.type: Kd (µM)

sample.smiles	readout.type	obs.value
O=C([O-])CN(CC(=O)[O-])c1ccccc1OCCOCCOc1cc(-c2c3cc(F)c(=O)cc-3oc3cc([O-])c(F)cc23)ccc1N(CC(=O)[O-])CC(=O)[O-].[K+].[K+].[K+].[K+].[K+]	Kd	38.9
O=C([O-])CN(CC(=O)O)c1ccc(C2=c3cc4c5c(c3Oc3c2cc2c6c3CCCN6CCC2)CCC[N+]=5CCC4)cc1OCCOCCOc1ccccc1N(CC(=O)O)CC(=O)O	Kd	0.189
CN(C)c1ccc2c(-c3ccc(N(CC(=O)[O-])CC(=O)O)c(OCCOCCOc4ccccc4N(CC(=O)O)CC(=O)O)c3)c3ccc(=[N+](C)C)cc-3oc2c1	Kd	5.44

====

- assay.info: Fluorescence titration of indicator with mercury ions in cuvettes
- Type: binding
- measurement.parameters: 100 mM MOPS pH7, dye 2.5×10^−7 M, excited 492 nm, recorded 517 nm; read-out: Kd mercury (Hg2+)

sample.smiles	Kd (nM)
O=C([O-])CN(CC(=O)[O-])c1ccccc1OCCOCCOc1cc(-c2c3cc(F)c(=O)cc-3oc3cc([O-])c(F)cc23)ccc1N(CC(=O)[O-])CC(=O)[O-].[K+].[K+].[K+].[K+].[K+]	2160

====

- assay.info: Fluorescence titration of indicator with calcium ions
- Assay type: binding
- measurement.parameters: Table 3 binding constant; read-out: Kd Ca^2+
pKd: −log10 of the molar value.
molecules and their reported pKd

sample.smiles	pKd
CN(C)c1ccc2c(-c3ccc(N(CC(=O)[O-])CC(=O)O)c(OCCOCCOc4ccccc4N(CC(=O)O)CC(=O)O)c3)c3ccc(=[N+](C)C)cc-3oc2c1	4.35
O=C([O-])CN(CC(=O)O)c1ccc(C2=c3cc4c5c(c3Oc3c2cc2c6c3CCCN6CCC2)CCC[N+]=5CCC4)cc1OCCOCCOc1ccccc1N(CC(=O)O)CC(=O)O	4.17
O=C([O-])CN(CC(=O)[O-])c1ccccc1OCCOCCOc1cc(-c2c3cc(F)c(=O)cc-3oc3cc([O-])c(F)cc23)ccc1N(CC(=O)[O-])CC(=O)[O-].[K+].[K+].[K+].[K+].[K+]	4.67

====

- assay.info: Fluorescence titration of indicator with zinc ions
- Format: binding
- measurement.parameters: Table 3 binding constant; read-out: Kd Zn^2+
pKd: −log10 of the molar value.

sample.smiles	pKd
CN(C)c1ccc2c(-c3ccc(N(CC(=O)[O-])CC(=O)O)c(OCCOCCOc4ccccc4N(CC(=O)O)CC(=O)O)c3)c3ccc(=[N+](C)C)cc-3oc2c1	4.45
O=C([O-])CN(CC(=O)O)c1ccc(C2=c3cc4c5c(c3Oc3c2cc2c6c3CCCN6CCC2)CCC[N+]=5CCC4)cc1OCCOCCOc1ccccc1N(CC(=O)O)CC(=O)O	4.54
O=C([O-])CN(CC(=O)[O-])c1ccccc1OCCOCCOc1cc(-c2c3cc(F)c(=O)cc-3oc3cc([O-])c(F)cc23)ccc1N(CC(=O)[O-])CC(=O)[O-].[K+].[K+].[K+].[K+].[K+]	4.57

====

- assay.info: Fluorescence titration of indicator with lanthanide ions in cuvettes
- Format: binding
- measurement.parameters: 100 mM MOPS pH7, dye 50 nM, excited 492 nm, recorded 517 nm; read-out: Kd lanthanide (La(III))

sample.smiles	Kd [nM]
O=C([O-])CN(CC(=O)[O-])c1ccccc1OCCOCCOc1cc(-c2c3cc(F)c(=O)cc-3oc3cc([O-])c(F)cc23)ccc1N(CC(=O)[O-])CC(=O)[O-].[K+].[K+].[K+].[K+].[K+]	10.3

Data provenance is patent US8604243B2.
